Test system: Proteus vulgaris
Test: MIC against Gram-negative bacteria: Proteus vulgaris
Assay type: cell-based
Conditions: Proteus vulgaris; 96-well plate, 5×10^5 CFU/mL, 37° C., 10 h
Documented MIC (μg/mL) P. vulgaris across a set of substances

[
  {
    "substance": "PRT47 (CTCSGHANICHLHTGKCFCTTKGIKGDQCQLCDSENRYVGNPLRGTCYY; listed as Homo sapiens)",
    "unit string": "µg/mL",
    "MIC (μg/mL) P. vulgaris": 50
  },
  {
    "substance": "PRT135 (PGHCSSYGSICHNGGKCVEKHNGYLCDCTNSPYEGPFCK; listed as Homo sapiens)",
    "unit string": "µg/mL",
    "MIC (μg/mL) P. vulgaris": 12.5
  },
  {
    "substance": "PRT1494 (KALCTPRCMNGGLCVTPGFCICPPGFYGVNCD; listed as Homo sapiens)",
    "unit string": "µg/mL",
    "MIC (μg/mL) P. vulgaris": 12.5
  },
  {
    "substance": "PRT120 (CRPCQNGGLATVEGTHCLCHCKPYTFGAACE; listed as Homo sapiens)",
    "unit string": "µg/mL",
    "MIC (μg/mL) P. vulgaris": 25
  },
  {
    "substance": "PRT36 (PVRDCSKDNGGCSKNFRCISDRKLDSTGCVCPSGLSPMKDSSGCY; listed as Homo sapiens)",
    "unit string": "µg/mL",
    "MIC (μg/mL) P. vulgaris": 12.5
  }
]

====

Test system: E. coli DH5α
Assay: Antibacterial activity: MIC and growth curve against E. coli DH5α in 96-well plate
Format: cell-based
Settings: minimal inhibitory concentration against E. coli DH5α; 96-well plate, 5×10^5 CFU/mL, 37° C., judged after 8 h

[
  {
    "substance": "PRT490 (CASAPCRNGGVCREGWNRFICDCIGTGFLGRVCE; listed as Homo sapiens)",
    "MIC": "25 µg/mL"
  },
  {
    "substance": "PRT671 (RVVVCPLPCMNGGQCSSRNQCLCPPDFTGRFCQ; listed as Homo sapiens)",
    "MIC": "50 µg/mL"
  },
  {
    "substance": "PRT177 (GPGPCDGNPCANGGSCSETPRSFECTCPRGFYGLRCE; listed as Homo sapiens)",
    "MIC": "50 µg/mL"
  },
  {
    "substance": "PRT716 (TEYTCEDNVNPCGDDAYCNQIKTSVFCRCKPGFQRNMKNRQCE; listed as Homo sapiens)",
    "MIC": "25 µg/mL"
  },
  {
    "substance": "PRT734 (NNNPCLENNGGCSHLCFALPGLHTPKCDCAFGTLQSDGKNCA; listed as Homo sapiens)",
    "MIC": "50 µg/mL"
  },
  {
    "substance": "PRT925 (DINECHSDPCQNDATCLDKIGGFTCLCMPGFKGVHCE; listed as Homo sapiens)",
    "MIC": "12.5 µg/mL"
  },
  {
    "substance": "PRT620 (CPCHNGFSCSVMPETEEVVCNNCPPGVTGARCELCADGYFGDPFGEHGPVRPCQP; listed as Homo sapiens)",
    "MIC": "25 µg/mL"
  },
  {
    "substance": "PRT1019 (NLDDCIAATCAPGSTCIDRVGSFSCLCPPGRTGLLCH; listed as Homo sapiens)",
    "MIC": "12.5 µg/mL"
  },
  {
    "substance": "PRT205 (SAHVCSQQCSGHGVCDSRNKCHCSPGYKPPNCQ; listed as Homo sapiens)",
    "MIC": "12.5 µg/mL"
  },
  {
    "substance": "PRT884 (HSDPCENNPCLHGGTCNANGTMYGCSCDQGFAGENCE; listed as Homo sapiens)",
    "MIC": "12.5 µg/mL"
  },
  {
    "substance": "PRT1227 (NLKLCDASNHCDRHGVCNNFNHCHCEKGYNPPYCQ; listed as Homo sapiens)",
    "MIC": "50 µg/mL"
  },
  {
    "substance": "PRT595 (CSCHASGVSPMECPPGGGACLCDPVTGACPCLPNVTGLACDRCADGYWNLVPGRGCQS; listed as Homo sapiens)",
    "MIC": "12.5 µg/mL"
  },
  {
    "substance": "PRT487 (SLCDLQPDFCLNDGKCDIMPGHGAICRCRVGENWWYRGKHCE; listed as Homo sapiens)",
    "MIC": "12.5 µg/mL"
  },
  {
    "substance": "PRT562 (CQCHNNIDTTDPEACDKETGRCLKCLYHTEGEHCQFCRFGYYGDALQQDCRK; listed as Homo sapiens)",
    "MIC": "50 µg/mL"
  },
  {
    "substance": "PRT1223 (LEGACTRSPCQHGGTCMDYWSWQQCHCKEGLTGKYCE; listed as Homo sapiens)",
    "MIC": "50 µg/mL"
  }
]

====

System: Proteus mirabilis
Test: MIC against Gram-negative bacteria: Proteus mirabilis
Assay type: cell-based
Details: Proteus mirabilis; 96-well plate, 5×10^5 CFU/mL, 37° C., 10 h
measured metric: MIC (μg/mL) P. mirabilis (µg/mL)

[
  {
    "substance": "PRT84 (EAGRCVPGVCRNGGTCTDAPNGGFRCQCPAGGAFEGPRCE; listed as Homo sapiens)",
    "measured metric": "MIC (μg/mL) P. mirabilis",
    "recorded measurement": 12.5
  },
  {
    "substance": "PRT71 (VDACHLNPCENMGACVRSPGSPQGYVCECGPSHYGPYCE; listed as Homo sapiens)",
    "measured metric": "MIC (μg/mL) P. mirabilis",
    "recorded measurement": 12.5
  },
  {
    "substance": "PRT115 (SRNPCSSSPCRGGATCVLGPHGKNYTCRCPQGYQLDSSQLDCV; listed as Homo sapiens)",
    "measured metric": "MIC (μg/mL) P. mirabilis",
    "recorded measurement": 12.5
  },
  {
    "substance": "PRT133 (CRGHCSSYGKLCRNGGKCRERPIGFFCDCTFSAYTGPFCS; listed as Homo sapiens)",
    "measured metric": "MIC (μg/mL) P. mirabilis",
    "recorded measurement": 12.5
  },
  {
    "substance": "PRT23 (KKNPCNAEFQNFCIHGECKYIEHLEAVTCKCQQEYFGERCG; listed as Homo sapiens)",
    "measured metric": "MIC (μg/mL) P. mirabilis",
    "recorded measurement": 50
  }
]

====

Documented MIC (μg/mL) E. cloacae across a set of substances
Test system: Enterobacter cloacae
Assay: MIC against Gram-negative bacteria: Enterobacter cloacae
Format: cell-based
Settings: Enterobacter cloacae; 96-well plate, 5×10^5 CFU/mL, 37° C., 10 h

[
  {
    "substance": "PRT111 (DLDECASRSKSGEEDPQPQCQHLCHNYVGGYFCSCRPGYELQEDTHSCQ; listed as Homo sapiens)",
    "MIC (μg/mL) E. cloacae, µg/mL": 50
  },
  {
    "substance": "PRT61 (KDECSKDNGGCQQDCVNTFGSYECQCRSGFVLHDNKHDCK; listed as Homo sapiens)",
    "MIC (μg/mL) E. cloacae, µg/mL": 12.5
  },
  {
    "substance": "PRT95 (DINECETGQHNCVPNSVCINTRGSFQCGPCQPGFVGDQASGCQ; listed as Homo sapiens)",
    "MIC (μg/mL) E. cloacae, µg/mL": 50
  },
  {
    "substance": "PRT3 (DGDQCESNPCLNGGSCKDDINSYECWCPFGFEGKNCE; listed as Homo sapiens)",
    "MIC (μg/mL) E. cloacae, µg/mL": 12.5
  },
  {
    "substance": "PRT86 (VTNACASGPCPPHADCRDLWQTFSCTCQPGYYGPGCV; listed as Homo sapiens)",
    "MIC (μg/mL) E. cloacae, µg/mL": 25
  },
  {
    "substance": "PRT16 (EKSPCQPNPCHGAAPCRVLPEGGAQCECPLGREGTFCQ; listed as Homo sapiens)",
    "MIC (μg/mL) E. cloacae, µg/mL": 12.5
  },
  {
    "substance": "PRT42 (CQCNGHSKCINQSICEKCENLTTGKHCETCISGFYGDPTNGGKCQP; listed as Homo sapiens)",
    "MIC (μg/mL) E. cloacae, µg/mL": 25
  },
  {
    "substance": "PRT89 (TNGQCHCKEFHYRPRGSDSCLPCDCYPVGSTSRSCA; listed as Homo sapiens)",
    "MIC (μg/mL) E. cloacae, µg/mL": 25
  },
  {
    "substance": "PRT100 (DVNECTSGQNPCHSSTHCLNNVGSYQCRCRPGWQPIPGSPNGPNNTVCE; listed as Homo sapiens)",
    "MIC (μg/mL) E. cloacae, µg/mL": 12.5
  },
  {
    "substance": "PRT63 (GCNFNNGGCHQDCFEGGDGSFLCGCRPGFRLLDDLVTCA; listed as Homo sapiens)",
    "MIC (μg/mL) E. cloacae, µg/mL": 12.5
  },
  {
    "substance": "PRT1495 (KANCSTTCFNGGTCFYPGKCICPPGLEGE; listed as Homo sapiens)",
    "MIC (μg/mL) E. cloacae, µg/mL": 12.5
  },
  {
    "substance": "PRT96 (AQRFCPDGSPSECHEHADCVLERDGSRSCVCAVGWAGNGILCG; listed as Homo sapiens)",
    "MIC (μg/mL) E. cloacae, µg/mL": 12.5
  },
  {
    "substance": "PRT132 (ISDRCLPNYCEHGGECSQSWSTFHCNCTNTGYRGATCH; listed as Homo sapiens)",
    "MIC (μg/mL) E. cloacae, µg/mL": 25
  },
  {
    "substance": "PRT36 (PVRDCSKDNGGCSKNFRCISDRKLDSTGCVCPSGLSPMKDSSGCY; listed as Homo sapiens)",
    "MIC (μg/mL) E. cloacae, µg/mL": 25
  },
  {
    "substance": "PRT6 (TRKLCSLDNGDCDQFCHEEQNSVVCSCARGYTLADNGKACI; listed as Homo sapiens)",
    "MIC (μg/mL) E. cloacae, µg/mL": 25
  },
  {
    "substance": "PRT10 (NCSAQCHNHGVCNHKQECHCHAGWAPPHCA; listed as Homo sapiens)",
    "MIC (μg/mL) E. cloacae, µg/mL": 12.5
  },
  {
    "substance": "PRT98 (DINECATPSKVSCGKFSDCWNTEGSYDCVCSPGYEPVSGAKTFKNESENTCQ; listed as Homo sapiens)",
    "MIC (μg/mL) E. cloacae, µg/mL": 25
  },
  {
    "substance": "PRT141 (DPCENNPCLHGGTCNANGTMYGCSCDQGFAGENCE; listed as Homo sapiens)",
    "MIC (μg/mL) E. cloacae, µg/mL": 12.5
  },
  {
    "substance": "PRT110 (DIDECASSNGTLCAHICINTLGSYRCECREGYIREDDGKTCT; listed as Homo sapiens)",
    "MIC (μg/mL) E. cloacae, µg/mL": 12.5
  }
]
